Hi, quick share: literature Ki data for Histamine H3 receptor (Homo sapiens, UniProt Q9Y5N1), several sources combined.
readout: Ki (µM)

>>> data_value("Nc1ncc(CN2CCC(F)(C(=O)N3CCC(n4c(Oc5ccccc5)nc5cc(F)ccc54)CC3)CC2)cn1")
0.001
>>> data_value("CCN(CCCOc1ccc2c(c1)CN(C)CC2c1ccc(OC)cc1)CCOC (stereo not drawn)")
0.02
>>> data_value("CCCCc1ccc(C(=O)N2CCN(C3CCC3)CC2)cc1")
0.024
>>> data_value("Cc1ccn2cc(-c3cccc(OCCCN4CCCCC4)c3)nc2c1")
0.028
>>> data_value("CSc1ccc(C2CN(C)Cc3cc(OCC4CN(C(C)C)C4)ccc32)cc1 (stereo not drawn)")
0.01
>>> data_value("Cc1ccn2cc(-c3ccc(OCCCN4CCCCC4)cc3C)nc2c1")
0.001
>>> data_value("COc1ccc(C2CN(C(C)(C)C)Cc3cc(OCCCN4CCCCC4)ccc32)cc1 (stereo not drawn)")
0.001

* * *

Dear all, I have gathered published Ki values for Histamine H3 receptor (Homo sapiens, UniProt Q9Y5N1); the list follows.
readout: Ki (nM)

>>> data_value("CN1Cc2cc(OCCCN3CCC(F)CC3)ccc2C(c2ccc(Sc3ncc[nH]3)nc2)C1 (centres unmarked)")
3
>>> data_value("Nc1ncc(CN2CCC(F)(C(=O)N3CCC(n4c(-c5cccc[n+]5[O-])nc5cccnc54)CC3)CC2)cn1")
30
>>> data_value("CC(C)N1CCN(C(=O)c2ccc(C(O)c3ccccc3)cc2)CC1 (centres unmarked)")
14
>>> data_value("COc1ccc(C2CN(C)Cc3cc(OCCCN4CCOC[C@@H]4C)ccc32)c(F)c1 (some centres unmarked)")
6
>>> data_value("Cc1ccn2cc(-c3ccc(OCCCN4CCCCCC4)cc3C)nc2c1")
0.5
>>> data_value("COc1cc(-c2cn3ccc(C)cc3n2)ccc1OCCCN1CCCCC1")
159
>>> data_value("c1cn(Cc2ccc(Oc3ccc(Cn4ccnc4)cc3)cc2)cn1")
151
>>> data_value("CN1Cc2cc(OCCCN3CCOCC3)ccc2C(c2ccc(OC(F)F)cc2)C1 (centres unmarked)")
17
>>> data_value("CSc1nc2cc(S(C)(=O)=O)ccc2n1C1CCN(C(=O)C2CCN(Cc3ccnnc3)CC2)CC1")
41
>>> data_value("CC(C)(C)c1ccc(C(=O)N2CCN(C3CCC3)CC2)cc1")
5
>>> data_value("COc1ccc(C2CN(C)Cc3cc(OCC4CCNCC4)ccc32)cc1 (centres unmarked)")
96
>>> data_value("COc1ccc(C2CN(C)Cc3c2ccc(OCCCN2CCOCC2)c3C)cc1F (centres unmarked)")
18

* * *

// cross-source set; read-out = pKi; system = Histamine H3 receptor (Homo sapiens)
pKi: −log10 of the molar value.
readout: pKi

>>> data_value("CC(C)N1CCN(CCCCc2ccc(C(CCN(C)C)Oc3ccc(C(F)(F)F)cc3)cc2)CC1 (stereo not drawn)")
7.92
>>> data_value("CN1Cc2cc(C#CCCN3CCCCC3)ccc2C(c2ccc(F)cc2)C1 (stereo not drawn)")
8.22
>>> data_value("CCCNCC(O)COc1ccc(-c2cn3cccc(C)c3n2)cc1 (stereo not drawn)")
6.00
>>> data_value("CN1Cc2cc(OCCCN3CCC(F)CC3)ccc2C(c2ccc(Br)nc2)C1 (stereo not drawn)")
8.22

* * *

A compilation of published Ki results with UniProtKB Q9Y5N1.
readout: Ki (nM)

>>> data_value("COc1ccc(C2CN(C)Cc3cc(OCCCN4CCOCC4)ncc32)cc1 (stereo not drawn)")
90
>>> data_value("CCCOc1nc2cccnc2n1C1CCN(C(=O)C2CCN(Cc3ccnnc3)CC2)CC1")
4
>>> data_value("CN(C)CCC(Oc1ccc(Cl)cc1Cl)c1ccc(OCCCN2CCCCC2)cc1 (stereo not drawn)")
0.9
>>> data_value("CN(C)CCC(Oc1cccnc1)c1ccc(OCCCN2CCCCC2)cc1 (stereo not drawn)")
0.3
>>> data_value("c1cc(Oc2ccc(CN3CCCCC3)cc2)ccc1CN1CCCCC1")
0.66

* * *

Collected literature values of Ki measured for Histamine H3 receptor (Homo sapiens).
readout: Ki (nM)

>>> data_value("CN1Cc2cc(OCCCN3CCC(F)CC3)ccc2C(c2ccccc2)C1 (centres unmarked)")
3
>>> data_value("CCN1CCOC(COc2ccc3c(c2)CN(C)CC3c2ccc(OC)cc2)C1 (mixture of isomers)")
11
>>> data_value("CN1CCC(N(C)Cc2ccc(OCCCN3CCC(Cc4c[nH]cn4)CC3)cc2)CC1")
4
>>> data_value("c1cc(N2CCC(CNC3CCCCC3)CC2)ccc1CN1CCCC1")
0.9
>>> data_value("COc1ccc(C2CN(C)Cc3cc(OCCCN4C[C@@H](C)O[C@@H](C)C4)ccc32)cc1 (some centres unmarked)")
21
>>> data_value("O=C(c1ccc(C(O)C2CCCCC2)cc1)N1CCN(C2CCC2)CC1 (centres unmarked)")
4
>>> data_value("CCOC(=O)N1CCN(CCCOc2ccc3c(c2)CN(C)CC3c2ccc(OC)cc2)CC1 (centres unmarked)")
59

* * *

We begin with log10 Ki values for Histamine H3 receptor (Homo sapiens), as collected from the published literature.
readout: log10 Ki (log10 of the value in nM)

>>> data_value("COc1ccc(C2CN(C)Cc3cc(OCC4CN(C5CC5)CCO4)ccc32)cc1 (mixture of isomers)")
1.11
>>> data_value("CCN1Cc2cc(OCCCN3CCC(F)CC3)ccc2C(c2ccc(OC)cc2)C1 (stereo not drawn)")
0.48
>>> data_value("Clc1ccc(C2CNCc3cc(OCCCN4CCOCC4)ncc32)cc1Cl (stereo not drawn)")
1.64
>>> data_value("O=S(=O)(c1ccc(Cl)cc1)N1CCC(CCc2c[nH]cn2)C1 (stereo not drawn)")
0.78
>>> data_value("c1cc(CN2CCSCC2)cc(N2CCC(CN3CCCC3)CC2)c1")
0.95
>>> data_value("Cc1cc(CN2CCN(C(C)C)CC2)ccc1N1CCC(CN2CCCC2)CC1")
1.20
>>> data_value("CSc1ccc(C2CN(C)Cc3cc(OC4CCN(C5CCOCC5)CC4)ccc32)cc1 (stereo not drawn)")
0.48
>>> data_value("CCOc1nc2cc(F)ccc2n1C1CCN(C(=O)C2(F)CCN(Cc3cnc(N)nc3)CC2)CC1")
0.60
>>> data_value("COc1ccc(C2CN(C)Cc3cc(OC4CCN(C(C)C)CC4)ccc32)c(F)c1 (stereo not drawn)")
0.00
>>> data_value("CSc1ccc(C2CN(C)Cc3cc(OC4CCN(C)CC4)ccc32)cc1 (stereo not drawn)")
1.34

* * *

Let's look at some pKi data for Histamine H3 receptor (Homo sapiens, UniProt Q9Y5N1) that I collected from the literature.
pKi: −log10 of the molar value.
Where pKi equals or exceeds 8, the correct label is 1; where it does not, the label is -1.

>>> class_name("CC(C)N1CCN(C(=O)c2cccnc2NCCN2CCCCC2)CC1")
-1
>>> class_name("C[C@@H]1CCCN1CCc1ccc(-c2ccc3c(c2)CCN(C(=O)c2ccccn2)C3)cc1")
1
>>> class_name("O=[N+]([O-])c1cc(CN2CCOCC2)ccc1N1CCC(CN2CCCC2)CC1")
-1
>>> class_name("CN(C)CCCOc1ccc(C(=O)c2ccc(O)cc2)cc1")
-1
>>> class_name("c1cc(N2CCC(N3CCCCC3)CC2)ccc1CN1CCOCC1")
1
>>> class_name("COc1ccc(C2CN(C)Cc3cc(OCC4CCN(C5CC5)CC4)ccc32)cc1 (stereo not shown)")
1
>>> class_name("NCCC(Oc1ccccc1)c1ccc(OCCCN2CCCCC2)cc1 (stereo not shown)")
1
>>> class_name("Cc1ccn2cc(-c3ccc(C#CCCN4CCCC4)cc3)nc2c1")
1
>>> class_name("CC(C)N1CCN(C(=O)c2ccc(N3CCN(C)CC3)nc2)CC1")
1
>>> class_name("OC1CCN(CC2CCN(c3ccc(CN4CCCC4)cc3)CC2)CC1")
1
>>> class_name("COc1ccc2c(c1)cc(C(=O)NC1CCCCC1)n2-c1ccc(OCCCN2CCC[C@H]2C)cc1")
1

* * *

pKi: −log10 of the molar value.
Let's look at some pKi data for Histamine H3 receptor (Homo sapiens) that I collected from the literature.
Rule: label 1 for pKi not less than 8, label 0 for anything less.

>>> class_name("COc1ccc(C2CN(C)Cc3cc(OCCCN4CCN(C(=O)OC(C)(C)C)CC4)ccc32)cc1 (centres unmarked)")
"label 0"
>>> class_name("O=C(c1ccc(CO)cc1)N1CCCN(C2CCC2)CC1")
"label 1"
>>> class_name("CC(C)CNC(=O)c1cc2ccccc2n1-c1ccc(OCCCN2CCC[C@H]2C)cc1")
"label 1"
>>> class_name("O=C(c1ccc(CO)cc1)N1CCCN(C2CC2)CC1")
"label 0"
>>> class_name("COc1ccc(C2CN(C)Cc3cc(OC4CCN(CCF)CC4)ccc32)cc1 (centres unmarked)")
"label 1"
>>> class_name("c1ccc2c(c1)cc(C1CC1)n2C1CCC(OCCCN2CCCC2)CC1 (single isomer, unassigned)")
"label 1"
>>> class_name("CSc1ccc(C2CN(C)Cc3cc(OC4CCN(CC#N)CC4)ccc32)cc1 (centres unmarked)")
"label 0"
>>> class_name("CCCN1Cc2cc(OCCCN3CCCCC3)ccc2C(c2ccc(OC)cc2)C1 (centres unmarked)")
"label 1"
>>> class_name("Cc1cccn2cc(-c3ccc(OCCN(C(C)C)C(C)C)cc3)nc12")
"label 0"
>>> class_name("CN1Cc2cc(OCCCN3CCCCC3)ncc2C(c2cccc(F)c2)C1 (centres unmarked)")
"label 1"
>>> class_name("COc1cccc(C2CN(C)Cc3cc(OCC4CCN(C5CCCC5)CC4)ccc32)c1 (centres unmarked)")
"label 1"
>>> class_name("O=C(CN1CCOCC1)c1ccc(OCCCN2CCCC2=O)cc1")
"label 0"
>>> class_name("CSc1ccc(C2CN(C)Cc3cc(OCC4CCNCC4)ccc32)cc1 (centres unmarked)")
"label 0"
>>> class_name("COc1ccc(C2CN(C)Cc3cc(OCCCN4C=NCCC4)ccc32)cc1 (centres unmarked)")
"label 0"
>>> class_name("COc1ccc(C2CN(C)Cc3cc(OC[C@@H]4CN(C5CC5)CCO4)ccc32)cc1 (mixture of isomers)")
"label 1"
>>> class_name("CN(C)CCC(Oc1ccc(C(F)(F)F)cc1)c1ccc(C#CCCN2CCOCC2)cc1 (centres unmarked)")
"label 0"
>>> class_name("CN(C)CCC(Oc1ccccc1)c1cccc(C#CCCN2CCCCC2)c1 (centres unmarked)")
"label 1"
>>> class_name("c1cc(CN2CCCC2)n(Cc2ccc(CN3CCCC3)cc2)c1")
"label 1"
>>> class_name("C#Cc1ccc(C2CN(C)Cc3cc(OCCCN4CCC(F)CC4)ccc32)cn1 (centres unmarked)")
"label 0"
>>> class_name("COCc1cc2cc(F)ccc2n1-c1ccc(OCCCN2CCCC2)cc1")
"label 1"
>>> class_name("COc1ccc(C2CN(C)Cc3cc(OCCCN4CCC[C@H]4C(F)(F)F)ccc32)cc1 (some centres unmarked)")
"label 0"
>>> class_name("COCc1cc2cc(C)ccc2n1-c1ccc(OCCCN2CCCC2)cc1")
"label 1"
>>> class_name("c1cc(N2CCC(CN3CCCC3)CC2)ccc1CNC1CCCCC1")
"label 1"
